Entries and their measured inhibition follow.
Target: Microphthalmia-associated transcription factor (Homo sapiens) (UniProt O75030)
Sequence (O75030 whole entry, looked up): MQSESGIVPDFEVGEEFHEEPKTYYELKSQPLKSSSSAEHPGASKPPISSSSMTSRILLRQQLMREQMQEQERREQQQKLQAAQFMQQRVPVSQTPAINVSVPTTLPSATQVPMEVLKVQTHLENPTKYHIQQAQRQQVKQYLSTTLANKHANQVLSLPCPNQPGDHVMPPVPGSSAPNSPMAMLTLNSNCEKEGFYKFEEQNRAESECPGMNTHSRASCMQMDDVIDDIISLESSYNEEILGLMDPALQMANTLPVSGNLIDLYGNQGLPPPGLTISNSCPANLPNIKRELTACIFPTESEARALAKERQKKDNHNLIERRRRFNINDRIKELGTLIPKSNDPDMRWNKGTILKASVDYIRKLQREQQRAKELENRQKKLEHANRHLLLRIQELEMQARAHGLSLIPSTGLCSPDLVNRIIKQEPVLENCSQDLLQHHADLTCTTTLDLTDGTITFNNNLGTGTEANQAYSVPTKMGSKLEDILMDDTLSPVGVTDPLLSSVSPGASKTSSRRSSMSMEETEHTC
Assay: MITF inhibitors, retest of hits, confirmation, biochemical, AlphaScreen, triplicate (AID 1259372)
Settings: AlphaScreen MITF homodimerization, biotin/His-MITF beads; at 2.6 µM; active compounds read high
The whole screen tested about 4,700 compounds, of which about 760 (16%) were called active. Not all results are given here.

Consider the following illustrative entries.
compound	test.result
C=CCNCCOCCOc1cc(C)ccc1C(C)(C)C	7.1% (inactive)
COc1ccc(CN2CCCC(C(=O)N3CCCCC3)C2)cc1 (stereo unspecified)	-32.4% (inactive)
N#C/C(=C/c1ccc(-c2ccc3c(c2)C(=O)NC3=O)o1)C(=O)O	6.58% (inactive)
COc1cc(CN2CCN(C(=O)C(c3ccccc3)c3ccccc3)CC2)cc(OC)c1OC	5.49% (inactive)
O=C(c1cccs1)N1CCC(N2CCN(Cc3ccccc3)CC2)CC1	1.58% (inactive)
CCCS(=O)(=O)N1CCN(Cc2cccc(Cl)c2)CC1	4.65% (inactive)
COc1cc(CN2CCN(Cc3ccccc3Br)CC2)cc(OC)c1	9.11% (inactive)
CC1CCCCC1NC(=O)CSc1nnc(-c2ccncc2)n1CCCN(C)C (stereo unspecified)	8.82% (inactive)
N#Cc1ccc(OCC(=O)Nc2nc(-c3ccccn3)cs2)cc1	22.3% (inactive)
Cc1cc(OCCN2CCN(C)CC2)ccc1C(C)C	-2.72% (inactive)

Here is another compound to look at.
**Query** Which inhibition value is on record for COc1ccc(C(=O)NCCN2CCN(c3nc4c(C)c(C)ccc4s3)CC2)cc1 ?
**Result** -5.73% (inactive)

Data credit: PubChem BioAssay AID1259372
